Source of measurements: ChEMBL document CHEMBL4321881

# protocol text: Metabolic stability in human liver microsomes assessed as parent compound remaining after 30 mins
# Assay type: ADME, Microsome
# settings: read-out: Stability
Rule for this label: Criterion met means remaining at 0.5 h is less than 80%; Criterion not met means remaining at 0.5 h is at least 80%.

C[C@H](Nc1ccc(C#N)n(C)c1=O)c1cc2cc(Cl)c(O[C@H](C)c3ccccn3)cc2[nH]c1=O = Criterion met

Query :: hey, is remaining at 0.5 h for CCn1cccc(NCc2cc3cc(Cl)ccc3[nH]c2=O)c1=O lower than 80% or not?
Result :: Criterion met

Query :: hey, is remaining at 0.5 h for Cn1cccc(NCc2cc3cc(Cl)ccc3[nH]c2=O)c1=O lower than 80% or not?
Result :: Criterion not met

Query :: hey, is remaining at 0.5 h for N#Cc1ccc(NCc2cc3cc(Cl)ccc3[nH]c2=O)c(=O)[nH]1 lower than 80% or not?
Result :: Criterion not met

Query :: hey, is remaining at 0.5 h for C[C@H](Nc1ccc(C#N)n(C)c1=O)c1cc2cc(Cl)c(OCc3ccccn3)cc2[nH]c1=O lower than 80% or not?
Result :: Criterion met

Query :: hey, is remaining at 0.5 h for C[C@H](Nc1ccc(C#N)n(C)c1=O)c1cc2cc(Cl)ccc2[nH]c1=O lower than 80% or not?
Result :: Criterion not met

Query :: hey, is remaining at 0.5 h for COc1cc2[nH]c(=O)c([C@H](C)Nc3ccc(C#N)n(C)c3=O)cc2cc1Cl lower than 80% or not?
Result :: Criterion not met

* * *

# assay target: Isocitrate dehydrogenase [NADP] cytoplasmic (Homo sapiens, UniProt O75874, R132C)
# Sequence (O75874 2-414 R132C limits assumed): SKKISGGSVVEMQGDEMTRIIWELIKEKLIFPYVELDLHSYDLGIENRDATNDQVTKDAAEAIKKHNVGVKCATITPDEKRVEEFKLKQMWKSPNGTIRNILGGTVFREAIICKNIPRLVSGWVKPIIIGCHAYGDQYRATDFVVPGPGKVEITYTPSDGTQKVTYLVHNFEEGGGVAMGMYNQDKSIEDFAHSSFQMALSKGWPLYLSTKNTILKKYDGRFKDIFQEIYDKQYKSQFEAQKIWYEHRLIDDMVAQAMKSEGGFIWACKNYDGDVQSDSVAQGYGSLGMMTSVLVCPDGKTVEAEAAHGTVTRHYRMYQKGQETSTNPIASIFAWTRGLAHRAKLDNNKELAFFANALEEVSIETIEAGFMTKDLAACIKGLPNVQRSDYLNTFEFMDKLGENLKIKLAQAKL
# protocol text: Inhibition of recombinant human Myc-DDK-tagged IDH1 R132C mutant using alpha-ketoglutarate as substrate preincubated for 15 mins followed by substrate and NADPH addition and measured after 45 mins by diaphorase/resazurin dye based assay
reported metric: IC50 (nM)
Answers are plain numbers, in nM.

Query :: State IC50 on Isocitrate dehydrogenase [NADP] cytoplasmic (Homo sapiens, UniProt O75874, R132C). Entry: C[C@H](Nc1ccc(C#N)n(C)c1=O)c1cc2cc(Cl)c(F)cc2[nH]c1=O
Result :: 159

* * *

# protocol text: Permeability of the compound by PAMPA
# Assay type: ADME
# settings: read-out: permeability
reported metric: Papp (×10⁻⁶ cm/s)
Numbers only, in ×10⁻⁶ cm/s.

Query :: Look up Papp of C[C@H](Nc1ccc(C#N)n(C)c1=O)c1cc2cc(Cl)ccc2[nH]c1=O [OLUTASIDENIB] and report it.
Result :: 19.9

* * *

Assignment: determine reported remaining at 0.5 h for the given compounds.
# protocol text: Metabolic stability in human liver microsomes assessed as parent compound remaining after 30 mins
# Type: ADME, Microsome
# settings: read-out: Stability

// solved cases for remaining at 0.5 h follow
CN1CCCC(NCc2cc3cc(Cl)ccc3[nH]c2=O)C1=O (centres undefined) = 99%
Cn1c(C(F)(F)F)ccc(NCc2cc3cc(Cl)ccc3[nH]c2=O)c1=O = 85%
Cn1c(C#N)ccc(NCc2cc3cc(Cl)ccc3[nH]c2=O)c1=O = 99%

Turning now to a further record.
Query :: Look up remaining at 0.5 h of C[C@H](Nc1ccc(C#N)n(C)c1=O)c1cc2cc(Cl)c(F)cc2[nH]c1=O and report it.
Result :: 100%
